B1: library; a variant is named by its letters at N, in order (parent)
chain: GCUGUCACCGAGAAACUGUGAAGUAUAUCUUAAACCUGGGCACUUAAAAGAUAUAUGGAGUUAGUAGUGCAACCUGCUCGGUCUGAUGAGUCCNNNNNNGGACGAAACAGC

Variants of: B1
protocol: FACS-Seq fitted mean relative fluorescence mCherry/BFP with ligand (log10 relative fluorescence); HEK293T; ligand: cyclic di-GMP (c-di-GMP-II aptamer); ligand concentration (+) FACS-Seq: 1 mM; higher = higher reporter protein expression
run_parameters: ligand present: yes
Catalogue of FACS-Seq fitted mean (log10) values
API note: the answer field is a bare number with no unit suffix.

Study these solved cases before continuing.
>  <mutation_spec>
UUCGGA

>  <FACS-Seq fitted mean (log10)>
0.0771

$$$$
>  <mutation_spec>
GGGGAC

>  <FACS-Seq fitted mean (log10)>
0.307

$$$$
>  <mutation_spec>
UCGGAA

>  <FACS-Seq fitted mean (log10)>
-0.286

$$$$
>  <mutation_spec>
GCUAGA

>  <FACS-Seq fitted mean (log10)>
-0.116

$$$$
>  <mutation_spec>
AUGAUU

>  <FACS-Seq fitted mean (log10)>
-0.0144

$$$$

// moving on: another record for FACS-Seq fitted mean (log10)
IN: Value lookup for FACS-Seq fitted mean (log10); key = AGGUAA
OUT: -0.0992
